# Test system: U118MG
# assay_overview: MTT assay panel
# Assay type: cell-based
# measurement_context: Homo sapiens, U-118-MG; U118MG cells, 72 hours
measured_endpoint: pIC50
When answering, recall that pIC50 equals minus log10 of the concentration in mol/L, and write that number alone.

Param item = NC(=O)/C(=C/n1cnc(-c2cc(C(F)(F)F)cc(C(F)(F)F)c2)n1)c1cncnc1 [Compound 124] ; retrieve measured pIC50. 6.43

###

# target_of_assay: CRM1 (Homo sapiens)
# Construct: endogenous in cells
# Sequence (O14980 whole entry): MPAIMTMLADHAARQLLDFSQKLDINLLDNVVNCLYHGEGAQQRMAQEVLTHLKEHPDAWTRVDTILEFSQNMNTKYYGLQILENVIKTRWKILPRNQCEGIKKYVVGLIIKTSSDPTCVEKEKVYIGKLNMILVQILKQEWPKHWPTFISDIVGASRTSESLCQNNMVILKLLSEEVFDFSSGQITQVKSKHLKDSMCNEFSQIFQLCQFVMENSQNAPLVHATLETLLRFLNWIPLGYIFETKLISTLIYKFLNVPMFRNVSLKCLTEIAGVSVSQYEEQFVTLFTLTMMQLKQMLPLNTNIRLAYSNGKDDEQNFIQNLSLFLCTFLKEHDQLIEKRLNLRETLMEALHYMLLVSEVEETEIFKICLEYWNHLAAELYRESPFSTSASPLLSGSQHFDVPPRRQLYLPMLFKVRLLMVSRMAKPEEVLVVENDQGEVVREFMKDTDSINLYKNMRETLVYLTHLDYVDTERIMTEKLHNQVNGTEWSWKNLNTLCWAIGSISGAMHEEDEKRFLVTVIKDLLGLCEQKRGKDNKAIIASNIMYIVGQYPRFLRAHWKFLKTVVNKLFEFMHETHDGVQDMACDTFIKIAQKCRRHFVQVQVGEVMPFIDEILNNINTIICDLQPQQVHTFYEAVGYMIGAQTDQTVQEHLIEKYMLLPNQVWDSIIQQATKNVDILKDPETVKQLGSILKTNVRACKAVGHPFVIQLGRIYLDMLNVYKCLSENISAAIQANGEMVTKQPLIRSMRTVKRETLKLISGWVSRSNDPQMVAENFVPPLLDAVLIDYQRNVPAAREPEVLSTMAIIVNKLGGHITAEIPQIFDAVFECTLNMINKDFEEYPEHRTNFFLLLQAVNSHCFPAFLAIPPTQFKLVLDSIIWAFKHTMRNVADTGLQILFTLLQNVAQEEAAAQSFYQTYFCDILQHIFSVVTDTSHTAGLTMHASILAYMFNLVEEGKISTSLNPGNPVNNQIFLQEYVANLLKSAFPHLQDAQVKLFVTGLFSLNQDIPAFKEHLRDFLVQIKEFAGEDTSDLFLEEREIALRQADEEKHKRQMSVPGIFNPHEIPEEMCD
# assay_overview: Inhibition of nuclear export, RevGFP assay in U2OS-RevGFP cells
# measurement_context: approximately 1 hour incubation
pIC50: −log10 of the molar value.
// reported pIC50 per item

CC(C)OC(=O)/C(=C/n1cnc(-c2cc(C(F)(F)F)cc(C(F)(F)F)c2)n1)c1cncc(F)c1 : 5.30 to 7.00

Consider the record given below.
Param item = `COc1ccc(/C(=C\n2cnc(-c3cc(C(F)(F)F)cc(C(F)(F)F)c3)n2)C(=O)OC(C)C)cn1` ; retrieve measured pIC50. 5.30 to 7.00

###

# Test system: HTB-38
# assay_overview: MTT assay panel
# Type: cell-based
# measurement_context: HTB-38 cells, 72 hours
# Method: Compound 124 was further tested against a panel of selected solid and hematological cancer cell lines and selected normal cell lines in an MTT assay. Briefly, the various cell lines above were plated at different densities on day 1. […] Cell Titer AQueous One was added to each well, and the plates were read in a plate reader at OD 495.
pIC50: −log10 of the molar value.
measured_endpoint: pIC50

Param item = `NC(=O)/C(=C/n1cnc(-c2cc(C(F)(F)F)cc(C(F)(F)F)c2)n1)c1cncnc1` ; retrieve measured pIC50. < 5.00

###

# System: Daudi
# assay_overview: MTT assay panel
# Format: cell-based
# measurement_context: Homo sapiens; Daudi cells, 72 hours
measured_endpoint: pIC50
When answering, recall that pIC50 equals minus log10 of the concentration in mol/L, and write that number alone.

Param item = NC(=O)/C(=C/n1cnc(-c2cc(C(F)(F)F)cc(C(F)(F)F)c2)n1)c1cncnc1 [Compound 124] ; retrieve measured pIC50. 8.10

###

# Test system: SHP-77
# assay_overview: MTT assay panel
# Type: cell-based
# measurement_context: Homo sapiens, SHP77; SHP-77 cells, 72 hours
measured_endpoint: pIC50
When answering, recall that pIC50 equals minus log10 of the concentration in mol/L, and write that number alone.

Param item = `NC(=O)/C(=C/n1cnc(-c2cc(C(F)(F)F)cc(C(F)(F)F)c2)n1)c1cncnc1` ; retrieve measured pIC50. 6.39

###

# Test system: SW-900
# assay_overview: MTT assay panel
# Assay type: cell-based
# measurement_context: Homo sapiens, SW900; SW-900 cells, 72 hours
measured_endpoint: pIC50
When answering, recall that pIC50 equals minus log10 of the concentration in mol/L, and write that number alone.

Param item = `NC(=O)/C(=C/n1cnc(-c2cc(C(F)(F)F)cc(C(F)(F)F)c2)n1)c1cncnc1` ; retrieve measured pIC50. 5.73

###

# Tested on: HCT116.1
# assay_overview: MTT assay panel
# Type: cell-based
# measurement_context: HCT116.1 cells, 72 hours
measured_endpoint: IC50 (µM)
Field: numeric (µM). Do not append units.

Requested read-out IC50, target or system HCT116.1, entry `NC(=O)/C(=C/n1cnc(-c2cc(C(F)(F)F)cc(C(F)(F)F)c2)n1)c1cncnc1` 0.2

###

# Test system: HPAF-II
# assay_overview: MTT assay panel
# Assay type: cell-based
# measurement_context: Homo sapiens; HPAF-II cells, 72 hours
pIC50: −log10 of the molar value.
measured_endpoint: pIC50

Param item = NC(=O)/C(=C/n1cnc(-c2cc(C(F)(F)F)cc(C(F)(F)F)c2)n1)c1cncnc1 [Compound 124] ; retrieve measured pIC50. < 5.00

###

# Tested on: SW-48
# assay_overview: MTT assay panel
# Format: cell-based
# measurement_context: Homo sapiens, SW48; SW-48 cells, 72 hours
measured_endpoint: pIC50
When answering, recall that pIC50 equals minus log10 of the concentration in mol/L, and write that number alone.

Param item = `NC(=O)/C(=C/n1cnc(-c2cc(C(F)(F)F)cc(C(F)(F)F)c2)n1)c1cncnc1` ; retrieve measured pIC50. 6.92

###

# System: SHSY5Y
# assay_overview: MTT assay panel
# Format: cell-based
# measurement_context: Homo sapiens, SH-SY5Y; SHSY5Y cells, 72 hours
measured_endpoint: pIC50
When answering, recall that pIC50 equals minus log10 of the concentration in mol/L, and write that number alone.

Requested read-out pIC50, target or system SHSY5Y, entry NC(=O)/C(=C/n1cnc(-c2cc(C(F)(F)F)cc(C(F)(F)F)c2)n1)c1cncnc1 [Compound 124] 7.30

###

# Tested on: NCI-H2030
# assay_overview: MTT assay panel
# Type: cell-based
# measurement_context: Homo sapiens; NCI-H2030 cells, 72 hours
# Procedure: Compound 124 was further tested against a panel of selected solid and hematological cancer cell lines and selected normal cell lines in an MTT assay. Briefly, the various cell lines above were plated at different densities on day 1. […] Cell Titer AQueous One was added to each well, and the plates were read in a plate reader at OD 495.
measured_endpoint: IC50 (nM)
Field: numeric (nM). Do not append units.

Param item = `NC(=O)/C(=C/n1cnc(-c2cc(C(F)(F)F)cc(C(F)(F)F)c2)n1)c1cncnc1` ; retrieve measured IC50. 2050

###

# System: SW-1116
# assay_overview: MTT assay panel
# Format: cell-based
# measurement_context: Homo sapiens; SW-1116 cells, 72 hours
measured_endpoint: pIC50
When answering, recall that pIC50 equals minus log10 of the concentration in mol/L, and write that number alone.

Param item = `NC(=O)/C(=C/n1cnc(-c2cc(C(F)(F)F)cc(C(F)(F)F)c2)n1)c1cncnc1` ; retrieve measured pIC50. 6.39

###

# Tested on: SNU-398
# assay_overview: MTT assay panel
# Assay type: cell-based
# measurement_context: Homo sapiens; SNU-398 cells, 72 hours
measured_endpoint: IC50 (nM)
Field: numeric (nM). Do not append units.

Param item = `NC(=O)/C(=C/n1cnc(-c2cc(C(F)(F)F)cc(C(F)(F)F)c2)n1)c1cncnc1` ; retrieve measured IC50. 970

###

# System: Farage
# assay_overview: MTT assay panel
# Format: cell-based
# measurement_context: Farage cells, 72 hours
measured_endpoint: pIC50
When answering, recall that pIC50 equals minus log10 of the concentration in mol/L, and write that number alone.

Requested read-out pIC50, target or system Farage, entry NC(=O)/C(=C/n1cnc(-c2cc(C(F)(F)F)cc(C(F)(F)F)c2)n1)c1cncnc1 [Compound 124] 6.34

###

# Tested on: NCI-H889
# assay_overview: MTT assay panel
# Type: cell-based
# measurement_context: Homo sapiens; NCI-H889 cells, 72 hours
# Protocol: Compound 124 was further tested against a panel of selected solid and hematological cancer cell lines and selected normal cell lines in an MTT assay. Briefly, the various cell lines above were plated at different densities on day 1. […] Cell Titer AQueous One was added to each well, and the plates were read in a plate reader at OD 495.
measured_endpoint: IC50 (nM)
Field: numeric (nM). Do not append units.

Requested read-out IC50, target or system NCI-H889, entry NC(=O)/C(=C/n1cnc(-c2cc(C(F)(F)F)cc(C(F)(F)F)c2)n1)c1cncnc1 [Compound 124] 1020

###

# Tested on: CAPAN-1
# assay_overview: MTT assay panel
# Type: cell-based
# measurement_context: Homo sapiens; CAPAN-1 cells, 72 hours
# Experimental: Compound 124 was further tested against a panel of selected solid and hematological cancer cell lines and selected normal cell lines in an MTT assay. Briefly, the various cell lines above were plated at different densities on day 1. […] Cell Titer AQueous One was added to each well, and the plates were read in a plate reader at OD 495.
measured_endpoint: IC50 (nM)
Field: numeric (nM). Do not append units.

Requested read-out IC50, target or system CAPAN-1, entry `NC(=O)/C(=C/n1cnc(-c2cc(C(F)(F)F)cc(C(F)(F)F)c2)n1)c1cncnc1` 20

###

# Tested on: MM1R
# assay_overview: MTT assay panel
# Format: cell-based
# measurement_context: MM.1R; MM1R cells, 72 hours
# Description: Compound 124 was further tested against a panel of selected solid and hematological cancer cell lines and selected normal cell lines in an MTT assay. Briefly, the various cell lines above were plated at different densities on day 1. […] Cell Titer AQueous One was added to each well, and the plates were read in a plate reader at OD 495.
measured_endpoint: IC50
Kindly format the answer as number then unit.

Requested read-out IC50, target or system MM1R, entry NC(=O)/C(=C/n1cnc(-c2cc(C(F)(F)F)cc(C(F)(F)F)c2)n1)c1cncnc1 [Compound 124] 8 nM

###

# target_of_assay: CRM1 (Homo sapiens)
# Construct: endogenous in cells
# assay_overview: Inhibition of nuclear export, RevGFP assay in U2OS-RevGFP cells
# measurement_context: approximately 1 hour incubation
pIC50: −log10 of the molar value.
measured_endpoint: pIC50

The examples below pair each entry with its known result.
CN(C)C(=O)/C(=C/n1cnc(-c2cc(C(F)(F)F)cc(C(F)(F)F)c2)n1)c1ccncc1 : 4.52 to 5.30
NC(=O)/C(=C/n1cnc(-c2cc(C(F)(F)F)cc(C(F)(F)F)c2)n1)c1nccs1 : > 7.00
CC(C)OC(=O)/C(=C/n1cnc(-c2cc(C(F)(F)F)cc(C(F)(F)F)c2)n1)c1cncnc1 : 5.30 to 7.00

Param item = `NC(=O)/C(=C/n1cnc(-c2cc(C(F)(F)F)cc(C(F)(F)F)c2)n1)c1ccnc(F)c1` ; retrieve measured pIC50. > 7.00

What do we get for `Cc1noc(C)c1/C(=C\n1cnc(-c2cc(C(F)(F)F)cc(C(F)(F)F)c2)n1)C(N)=O` ? 5.30 to 7.00

What do we get for `CC(C)OC(=O)/C(=C/n1cnc(-c2cc(C(F)(F)F)cc(C(F)(F)F)c2)n1)c1cccnc1` ? 4.52 to 5.30

What do we get for `Cn1cc(/C(=C\n2cnc(-c3cc(C(F)(F)F)cc(C(F)(F)F)c3)n2)C(N)=O)cn1` ? 5.30 to 7.00

What do we get for `NC(=O)/C(=C/n1cnc(-c2cc(C(F)(F)F)cc(C(F)(F)F)c2)n1)c1cccnc1` ? 5.30 to 7.00

Hello, the source for this data is patent US11945794B2, in case you need it.
